Measurement Protocol: Cytotoxicity against human MT4 cells assessed as reduction in cell viability after 5 days by MTT assay
Assay type: toxicity, cell-based
This section presents molecules with their documented CC50 at 120 h values.
Assay Metric: CC50 at 120 h

Mol | Assay Metric | Reading
Cc1cc(=O)oc2cc(-c3ccc(C(C)(C)C)cc3)c(OS(=O)(=O)C(F)(F)F)cc12 | CC50 at 120 h | 10.3 µg/mL
COc1ccc(-c2cc3oc(=O)cc(C)c3cc2OS(=O)(=O)C(F)(F)F)cc1 | CC50 at 120 h | ≥ 10.6 µg/mL
COc1ccc(-c2cc3oc(=O)cc(C)c3cc2-c2ccc(F)cc2)cc1 | CC50 at 120 h | 10.9 µg/mL
Cc1ccnc2c1NC(=O)c1cccnc1N2C1CC1 | CC50 at 120 h | > 4 µg/mL

---

Measurement Protocol: Cytotoxicity against human MT4 cells assessed as reduction in cell viability after 5 days by MTT assay
Type: toxicity, cell-based

Mol | Relation Qualifier | CC50 at 120 h, µg/mL
Cc1cccc(-c2cc3oc(=O)cc(C)c3cc2OS(=O)(=O)C(F)(F)F)c1 | = | 61.3
COc1ccc(-c2cc3oc(=O)cc(C)c3cc2OS(=O)(=O)C(F)(F)F)c(OC)c1OC | = | 2.13
Cc1cc(=O)oc2cc(-c3ccc(F)cc3)c(OS(=O)(=O)C(F)(F)F)cc12 | = | 10.6
CCOc1ccc(-c2cc3oc(=O)cc(C)c3cc2OS(=O)(=O)C(F)(F)F)cc1 | ≥ | 27.2
Cc1ccc(-c2cc3oc(=O)cc(C)c3cc2OS(=O)(=O)C(F)(F)F)cc1 | = | 11
COc1ccc(-c2cc3oc(=O)cc(C)c3cc2-c2ccc(OC)cc2)cc1 | = | 11
Cc1cc(=O)oc2cc(-c3ccc(Cl)cc3)c(-c3ccc(Cl)cc3)cc12 | = | 16
Cc1cn([C@H]2C[C@H](N=[N+]=[N-])[C@@H](CO)O2)c(=O)[nH]c1=O | > | 25
